Data provenance is BindingDB's records for PubMed 33422907.

- Assayed Target: Signal transducer and activator of transcription 3 (Homo sapiens, UniProt P40763)
- Sequence (P40763 whole entry): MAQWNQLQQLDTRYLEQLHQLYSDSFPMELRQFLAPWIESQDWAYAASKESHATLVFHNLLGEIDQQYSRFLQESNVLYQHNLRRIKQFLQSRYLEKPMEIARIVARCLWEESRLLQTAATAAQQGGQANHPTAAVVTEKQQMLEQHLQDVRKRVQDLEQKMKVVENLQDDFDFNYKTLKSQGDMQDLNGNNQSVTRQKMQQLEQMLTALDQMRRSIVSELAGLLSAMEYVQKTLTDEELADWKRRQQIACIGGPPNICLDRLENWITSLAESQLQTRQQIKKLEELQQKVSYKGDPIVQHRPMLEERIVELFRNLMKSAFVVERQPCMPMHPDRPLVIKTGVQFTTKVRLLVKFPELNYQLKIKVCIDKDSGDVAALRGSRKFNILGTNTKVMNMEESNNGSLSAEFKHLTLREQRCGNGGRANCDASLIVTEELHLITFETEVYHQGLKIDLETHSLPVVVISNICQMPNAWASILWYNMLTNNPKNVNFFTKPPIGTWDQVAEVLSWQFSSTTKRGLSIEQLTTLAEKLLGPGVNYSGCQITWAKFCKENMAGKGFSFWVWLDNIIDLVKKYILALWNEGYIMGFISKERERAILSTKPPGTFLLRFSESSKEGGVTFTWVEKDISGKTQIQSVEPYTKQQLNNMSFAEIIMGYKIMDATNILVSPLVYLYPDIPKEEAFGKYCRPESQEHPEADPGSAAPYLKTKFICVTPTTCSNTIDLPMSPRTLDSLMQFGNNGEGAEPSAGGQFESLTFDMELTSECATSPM
- Assay Comment: Inhibition of STAT3 in human Hep3B cells assessed as inhibition of IL-6 stimulated STAT3 expression by luciferase reporter assay
Endpoint Name: IC50 (µM)

[a] COc1ccc(/C=C/C=C/C(=O)/C=C/c2ccc(O)cc2)cc1
[b] COc1ccc(/C=C/C(C[C@H](O)CCc2ccc(OC)c(OC)c2)OC)cc1OC (stereo not given in full)
IN: Lower value for measured IC50? Options: a , b Please reply using the label of the selected record.
OUT: a

* * *

- Assayed Target: Signal transducer and activator of transcription 3 (Homo sapiens)
- Assay Comment: Inhibition of STAT3 in human Hep3B cells assessed as inhibition of IL-6 stimulated STAT3 expression by luciferase reporter assay
pIC50: −log10 of the molar value.
Endpoint Name: pIC50

>  <Input Smiles>
COc1ccc(/C=C/[C@H](O)C[C@@H](O)CCc2ccc(OC)c(OC)c2)cc1OC

>  <Assayed Target>
Signal transducer and activator of transcription 3 (Homo sapiens)

>  <pIC50>
4.70

$$$$

[I] COc1ccc(CC[C@@H](O)C[C@H](O)CCc2ccc(OC)c(OC)c2)cc1OC
[II] COc1ccc(/C=C/[C@@H](C[C@@H](O)CCc2ccc(OC)c(OC)c2)OC)cc1OC
IN: Compare reported pIC50 values for I and II . Which is lower? Kindly give the label for the entry you pick.
OUT: I
(I: 4.30, II: 4.89)

* * *

- Assayed Target: Signal transducer and activator of transcription 3 (Homo sapiens, UniProt P40763)
- Assay Comment: Inhibition of STAT3 in human Hep3B cells assessed as inhibition of IL-6 stimulated STAT3 expression by luciferase reporter assay
Endpoint Name: IC50 (µM)

[I] COc1ccc(CC[C@H](O)C[C@@H](O)/C=C/c2cc(OC)c(OC)c(OC)c2)cc1OC
[II] O=[N+]([O-])c1ccc2c(c1)S(=O)(=O)C=C2
[III] COc1cc(/C=C/C(=O)CC(=O)CC(O)c2ccc(O)c(OC)c2)ccc1O (stereo not drawn)
IN: Method: rank(items above, key=IC50, ascending=True) Provide the ranking by listing each label in its place in the requested order.
OUT: II, III, I
(II: 0.67 µM, III: 21.5 µM, I: 37.6 µM)
